Origin of the recorded values: PubChem BioAssay AID588342

testedSystem: Luciferin 4-monooxygenase (Photinus pyralis) (UniProt P08659)
Sequence (P08659 whole entry, looked up): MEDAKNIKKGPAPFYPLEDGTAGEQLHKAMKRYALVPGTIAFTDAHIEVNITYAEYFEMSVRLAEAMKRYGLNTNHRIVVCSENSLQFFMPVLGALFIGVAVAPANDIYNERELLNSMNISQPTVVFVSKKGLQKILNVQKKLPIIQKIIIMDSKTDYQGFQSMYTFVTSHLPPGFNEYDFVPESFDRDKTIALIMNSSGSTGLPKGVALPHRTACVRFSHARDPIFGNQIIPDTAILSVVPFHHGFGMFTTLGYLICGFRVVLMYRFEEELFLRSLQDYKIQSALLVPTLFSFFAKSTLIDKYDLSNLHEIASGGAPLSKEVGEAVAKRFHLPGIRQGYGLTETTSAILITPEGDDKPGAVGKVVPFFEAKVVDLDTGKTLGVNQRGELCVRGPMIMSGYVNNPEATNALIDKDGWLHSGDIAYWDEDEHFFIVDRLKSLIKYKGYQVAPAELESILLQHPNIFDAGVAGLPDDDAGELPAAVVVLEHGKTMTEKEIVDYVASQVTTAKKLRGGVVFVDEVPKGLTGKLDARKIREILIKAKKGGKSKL
assayProcedure: qHTS profiling assay for firefly luciferase inhibitor/activator using purifed enzyme and Km concentrations of substrates (counterscreen for miR-21 project); also: nearly all actives have a fitted effect of over 55% in size
conditionSet: purified FLuc, luminescence inhibition; series mostly up to 57.5 µM
The whole screen tested about 360,000 compounds, of which about 25,000 (6.9%) were called active. Roughly 9% stayed inconclusive and do not appear here. Calls follow the shape of the dose curve; as a rule, active = well fitted inhibition curve with a large enough effect; inconclusive = small, poorly fitted or top-dose-only effect; inactive = flat fitted curve, though single readings scatter. This excerpt belongs to a sample that is enriched for actives.
Just give me one of these, please: 1.0 for active, 0.0 for inactive

QUERY: Dear colleague, could you share the recorded outcome for CC(C)(C)OC(=O)N/N=C/c1ccc(C(=O)O)cc1 when you have a moment?
RESULT: 1.0

QUERY: Dear colleague, could you share the recorded outcome for Cc1cccc(NC(=O)c2sc3nc(N4CCOCC4)c4c(c3c2N)CCCC4)c1 when you have a moment?
RESULT: 0.0

QUERY: Dear colleague, could you share the recorded outcome for CC(=O)C1=C(C)NC(=O)NC1c1ccc2c(c1)OCO2 (stereo not drawn) when you have a moment?
RESULT: 0.0

====

testedSystem: Luciferin 4-monooxygenase (Photinus pyralis) (UniProt P08659)
assayProcedure: qHTS profiling assay for firefly luciferase inhibitor/activator using purifed enzyme and Km concentrations of substrates (counterscreen for miR-21 project); also: nearly all actives have a fitted effect of over 55% in size; also: potency is read from the fitted curve at half-maximal effect
conditionSet: purified FLuc, luminescence inhibition; series mostly up to 57.5 µM
Screen size: about 360,000 compounds; about 25,000 (6.9%) were called active. Inconclusive results (about 9%) are left out. Many of the other results were omitted from the sample, so actives are more common in it than they were.
parameterMeasured: Potency

>>> reportedmeasurement("COc1ccccc1C(=O)Nc1ccc(OCc2nnc3c4ccccc4c(C)nn23)cc1")
"4.26 µM (active)"
>>> reportedmeasurement("Oc1ccc(-n2nnnc2SCc2c(F)cccc2Cl)cc1")
"inactive"
>>> reportedmeasurement("O=C(NCCCN1CCOCC1)c1cc(-c2ccccc2F)no1")
"inactive"
>>> reportedmeasurement("Cc1ccc(C(=O)Nc2cc3c(cc2N2CCCC2)n(C)c(=O)c(=O)n3C)cc1")
"inactive"

// moving on: another record for Potency
get_value(item= Fc1cccc(Cl)c1CSc1ccc(-c2ccco2)nn1 , readout=Potency) returns 13.5 µM (active)

====

testedSystem: Luciferin 4-monooxygenase (Photinus pyralis) (UniProt P08659)
assayProcedure: qHTS profiling assay for firefly luciferase inhibitor/activator using purifed enzyme and Km concentrations of substrates (counterscreen for miR-21 project); also: nearly all actives have a fitted effect of over 55% in size
conditionSet: purified FLuc, luminescence inhibition; series mostly up to 57.5 µM
About 25,000 (6.9%) of roughly 360,000 compounds were called active. Inconclusive results (about 9%) are left out. The call rests on the fitted dose curve; in most records, active means well fitted inhibition curve with a large enough effect; inconclusive means small, poorly fitted or top-dose-only effect; inactive means flat fitted curve, though single readings scatter. The sample as a whole holds a higher share of actives than the screen did.
Just give me one of these, please: active, inactive

QUERY: Dear colleague, could you share the recorded outcome for Cc1ccc(Cl)cc1N1CCN(C(=O)c2cnc3c(-c4ccc(F)cc4)c(C)nn3c2C)CC1 when you have a moment?
RESULT: inactive

QUERY: Dear colleague, could you share the recorded outcome for CN(Cc1ccccc1)C(=O)c1ccc(COc2ccccc2)cc1 when you have a moment?
RESULT: inactive

QUERY: Dear colleague, could you share the recorded outcome for COc1ccc(-n2c(SCC(N)=O)nc3c(oc4ccccc43)c2=O)cc1 when you have a moment?
RESULT: inactive

QUERY: Dear colleague, could you share the recorded outcome for CC(=O)c1ccc(N2CCN(c3nc4c(S(=O)(=O)c5ccccc5)nnn4c4ccc(Cl)cc34)CC2)cc1 when you have a moment?
RESULT: inactive

QUERY: Dear colleague, could you share the recorded outcome for O=C(NC1CCCCC1)c1ccc2c(c1)N(Cc1ccc(Cl)cc1)C(=O)c1ccccc1S2=O (configuration not stated) when you have a moment?
RESULT: inactive

QUERY: Dear colleague, could you share the recorded outcome for CCn1ncc(C2=NOC(C(=O)Nc3ccccc3C(=O)OC)C2)c1C (configuration not stated) when you have a moment?
RESULT: inactive

QUERY: Dear colleague, could you share the recorded outcome for CN(Cc1ccccc1)C(=O)COc1ccccc1 when you have a moment?
RESULT: active

====

testedSystem: Luciferin 4-monooxygenase (Photinus pyralis) (UniProt P08659)
assayProcedure: qHTS profiling assay for firefly luciferase inhibitor/activator using purifed enzyme and Km concentrations of substrates (counterscreen for miR-21 project); also: nearly all actives have a fitted effect of over 55% in size
conditionSet: purified FLuc, luminescence inhibition; series mostly up to 57.5 µM
Hit rate of the full screen: of about 360,000 compounds, about 25,000 (6.9%) were called active. Roughly 9% stayed inconclusive and do not appear here. Calls follow the shape of the dose curve; as a rule, active = well fitted inhibition curve with a large enough effect; inconclusive = small, poorly fitted or top-dose-only effect; inactive = flat fitted curve, though single readings scatter. This is one part of a sample in which actives are shown more often than they occur.
Just give me one of these, please: active, inactive

QUERY: Dear colleague, could you share the recorded outcome for COc1ccc2oc(=O)c(C(=O)N3CCCC3)cc2c1 when you have a moment?
RESULT: inactive

QUERY: Dear colleague, could you share the recorded outcome for COc1ccc(C(=O)N2CCN(c3ncccn3)CC2)cc1S(=O)(=O)N1CCOCC1 when you have a moment?
RESULT: inactive

QUERY: Dear colleague, could you share the recorded outcome for O=S(=O)(NCc1ccccc1Br)c1ccccc1Br when you have a moment?
RESULT: inactive

QUERY: Dear colleague, could you share the recorded outcome for O=[N+]([O-])c1ccc(N/N=C/c2ccccc2)cc1 when you have a moment?
RESULT: active

QUERY: Dear colleague, could you share the recorded outcome for COC(=O)c1ccccc1NC(=O)Cn1c(=O)n(-c2cccc(C(F)(F)F)c2)c(=O)c2c(C)c(C)sc21 when you have a moment?
RESULT: inactive

QUERY: Dear colleague, could you share the recorded outcome for Cc1ccc(NS(=O)(=O)c2ccc3c(c2)CC(=O)N3)cc1Cl when you have a moment?
RESULT: inactive

QUERY: Dear colleague, could you share the recorded outcome for COc1cccc(C2=CC(=O)C[C@H](c3ccc(F)cc3)C2)c1OC when you have a moment?
RESULT: inactive

QUERY: Dear colleague, could you share the recorded outcome for O=C(CNCCC1=CCCCC1)Nc1ccccc1N1CCCCCC1 when you have a moment?
RESULT: inactive

QUERY: Dear colleague, could you share the recorded outcome for CCOc1ccc(NC(=O)CC(Cc2ccc(Cl)cc2)C(=O)O)cc1 (stereo unspecified) when you have a moment?
RESULT: inactive

QUERY: Dear colleague, could you share the recorded outcome for CCCCC12CN3CC(C)(CN(C1)C3c1ccc(O)c(OC)c1)C2=O (stereo unspecified) when you have a moment?
RESULT: inactive

QUERY: Dear colleague, could you share the recorded outcome for O=C(Cc1nc2ccccc2[nH]c1=O)c1ccc(Cl)cc1 when you have a moment?
RESULT: active

QUERY: Dear colleague, could you share the recorded outcome for O=C(NCc1ccco1)C1CCCN1S(=O)(=O)c1ccccc1C(F)(F)F (stereo unspecified) when you have a moment?
RESULT: inactive

QUERY: Dear colleague, could you share the recorded outcome for Cc1ccc(CNC(=O)CC(NC(=O)c2ccccc2)c2ccccc2)cc1 (stereo unspecified) when you have a moment?
RESULT: inactive

QUERY: Dear colleague, could you share the recorded outcome for COc1ccc(OC)c(NC(=O)C2CCCN(S(=O)(=O)c3ccc4c(c3)CCCC(=O)N4)C2)c1 (stereo unspecified) when you have a moment?
RESULT: inactive

QUERY: Dear colleague, could you share the recorded outcome for COc1cccc(C(=O)c2cc3ccc(O)cc3oc2=O)c1 when you have a moment?
RESULT: active

QUERY: Dear colleague, could you share the recorded outcome for COc1ccc(C2/C(=C(/O)c3ccccc3)C(=O)C(=O)N2C)c(OC)c1 (stereo unspecified) when you have a moment?
RESULT: inactive

QUERY: Dear colleague, could you share the recorded outcome for CCc1cc(CNC(=O)CC2C(=O)NCCN2CC2CCCCC2)on1 (stereo unspecified) when you have a moment?
RESULT: inactive

QUERY: Dear colleague, could you share the recorded outcome for COC(=O)c1ccc(NC(=O)CCc2c(C)nc3c(c(C)nn3-c3ccc(C)cc3)c2C)cc1 when you have a moment?
RESULT: inactive

QUERY: Dear colleague, could you share the recorded outcome for O=C(N/N=C/c1ccc(O)c(O)c1)C1c2ccccc2Oc2ccccc21 when you have a moment?
RESULT: inactive

QUERY: Dear colleague, could you share the recorded outcome for CCCOc1ccccc1-c1nc(SCCC(=O)O)n[nH]1 when you have a moment?
RESULT: inactive

QUERY: Dear colleague, could you share the recorded outcome for COC1=C(N2CCOCC2)C(=O)c2ccccc2C1=O when you have a moment?
RESULT: inactive

QUERY: Dear colleague, could you share the recorded outcome for CCn1c(SCC(=O)N/N=C/c2ccccc2OCC(=O)O)nnc1-c1ccc(C(C)(C)C)cc1 when you have a moment?
RESULT: active

QUERY: Dear colleague, could you share the recorded outcome for O=C(COc1ccc(/C=N/NC(=O)c2ccc(O)cc2)cc1)Nc1ccc([N+](=O)[O-])cc1 when you have a moment?
RESULT: inactive

QUERY: Dear colleague, could you share the recorded outcome for CC(=N\NC(=O)c1cc(Br)ccc1O)/C(=N/O)C(=O)Nc1ccccc1 when you have a moment?
RESULT: active

QUERY: Dear colleague, could you share the recorded outcome for O=C(CCOc1ccccc1)N(Cc1cccnc1)c1nc2ccc(Cl)cc2s1 when you have a moment?
RESULT: inactive

QUERY: Dear colleague, could you share the recorded outcome for CCOc1ccc(C(=O)N2CCN(CCc3ccccn3)CC2)cc1 when you have a moment?
RESULT: inactive

QUERY: Dear colleague, could you share the recorded outcome for CCOc1ccc2oc(=O)cc(CN3CCN(C(=O)c4ccc(F)cc4)CC3)c2c1 when you have a moment?
RESULT: inactive

QUERY: Dear colleague, could you share the recorded outcome for CCc1nnc(SCc2nc(-c3cccc(C)c3)oc2C)c2cc3sc(C)cc3n12 when you have a moment?
RESULT: inactive

QUERY: Dear colleague, could you share the recorded outcome for COC(=O)c1sc(NC(=O)COC(=O)C2CCC2)c(C(=O)OC)c1C when you have a moment?
RESULT: inactive

QUERY: Dear colleague, could you share the recorded outcome for COc1cc2nc(SCc3ccc(F)cc3)n3nc(CCn4c(C)nc5ccccc54)nc3c2cc1OC when you have a moment?
RESULT: inactive

QUERY: Dear colleague, could you share the recorded outcome for COc1cc(/C=N/NC(=O)c2cccnc2)ccc1OC(=O)c1cccc(Br)c1 when you have a moment?
RESULT: inactive
